organism: Rattus norvegicus; assay: Modulation of glutamate receptor in synaptosomes of rat brain cortex assessed as change in glutamate-induced 45Ca2+ uptake (K43/21) after 5 mins by liquid scintillation counting method; type: subcellular; set-up: concentration or dose not given beside the values

{"columns": ["compound", "value.units", "Activity"],
 "data": [
  ["CSc1cccc(Nc2nc(CC(C)NC3CC(C)(C)NC(C)(C)C3)ns2)c1 (stereo unspecified)", "%", 117],
  ["CC(Cc1nsc(Nc2ccc(F)c(Cl)c2)n1)NC1CC(C)(C)NC(C)(C)C1 (stereo unspecified)", "%", 189],
  ["Cc1ccc(Nc2nc(CC(C)O)ns2)cc1 (stereo unspecified)", "%", 85],
  ["COc1ccc(Nc2nc(CC(C)O)ns2)cc1 (stereo unspecified)", "%", 108],
  ["CC(O)Cc1nsc(Nc2ccc(F)cc2)n1 (stereo unspecified)", "%", 88],
  ["CSc1cccc(Nc2nc(CC(C)O)ns2)c1 (stereo unspecified)", "%", 86.7],
  ["CC(Cc1nsc(Nc2ccc(Cl)cc2)n1)NC1CC(C)(C)NC(C)(C)C1 (stereo unspecified)", "%", 172],
  ["Cc1ccc(Nc2nc(CC(C)NC3CC(C)(C)NC(C)(C)C3)ns2)cc1Cl (stereo unspecified)", "%", 214],
  ["Cc1ccc(Cl)cc1Nc1nc(CC(C)O)ns1 (stereo unspecified)", "%", 88],
  ["Cc1cc(Nc2nc(CC(C)O)ns2)no1 (stereo unspecified)", "%", 109],
  ["Cc1ccc(Nc2nc(CC(C)NC3CC(C)(C)NC(C)(C)C3)ns2)cc1 (stereo unspecified)", "%", 128],
  ["Cc1ccc(Cl)cc1Nc1nc(CC(C)NC2CC(C)(C)NC(C)(C)C2)ns1 (stereo unspecified)", "%", 177],
  ["Cc1ccc(Nc2nc(CC(C)O)ns2)cc1Cl (stereo unspecified)", "%", 87],
  ["CC(Cc1nsc(NC2CC2)n1)NC1CC(C)(C)NC(C)(C)C1 (stereo unspecified)", "%", 86],
  ["CC(Cc1nsc(Nc2ccc(Br)cc2)n1)NC1CC(C)(C)NC(C)(C)C1 (stereo unspecified)", "%", 82],
  ["CC(O)Cc1nsc(Nc2ccc(Cl)cc2)n1 (stereo unspecified)", "%", 89],
  ["CC(Cc1nsc(Nc2ccc(F)cc2)n1)NC1CC(C)(C)NC(C)(C)C1 (stereo unspecified)", "%", 112],
  ["CC(Cc1nsc(Nc2ccc(Cl)c(Cl)c2)n1)NC1CC(C)(C)NC(C)(C)C1 (stereo unspecified)", "%", 305],
  ["Cc1cc(Nc2nc(CC(C)NC3CC(C)(C)NC(C)(C)C3)ns2)no1 (stereo unspecified)", "%", 108],
  ["CC(O)Cc1nsc(Nc2ccc(Cl)c(Cl)c2)n1 (stereo unspecified)", "%", 51],
  ["CC(O)Cc1nsc(Nc2ccc(F)c(Cl)c2)n1 (stereo unspecified)", "%", 75]
]}
